List of z-score values.
- target_under_test: NADPH oxidase 4 (Homo sapiens)
- assay_summary: compounds shifting NOX4 Amplex Red fluorescence – cell-based, HEK293-NOX4, tetracycline-induced, NOX inhibitor project, primary screen (AID 1160)
- setup_conditions: HEK293-NOX4, Amplex Red H2O2 fluorescence, 45 min; higher = more signal, called active from +8 up or from −8 down
Activity calls are given as the source filed them.

Challenge: Please supply the value of reported z-score for the item CCOC(=O)C[C@H]1[C@H](OC(=O)c2cc3ccccc3oc2=O)[C@@H](NC(=O)c2ccc3ccccc3n2)c2cc(OCCCO)ccc2N1C(=O)Cc1ccc(OC)cc1
Response given: 1 (inactive)

Challenge: Please supply the value of reported z-score for the item COC(=O)C1=CC(CCCO)=CC(c2ccc(CN3CCCC3)cc2)N(Cc2cccc(OC(F)(F)F)c2)C=C1C(=O)OC (configuration not stated)
Response given: -0.351 (inactive)

Challenge: Please supply the value of reported z-score for the item CN(C)C(=O)[C@@]1(Cc2ccccc2)N=C(c2ccc(OCCCO)cc2)O[C@H]1c1ccccc1
Response given: 0.068 (inactive)

Challenge: Please supply the value of reported z-score for the item C#CCN(Cc1ccccc1Br)[C@H](/C=C/c1ccccc1)[C@@H](O)Cc1ccccc1
Response given: 0.109 (inactive)

Challenge: Please supply the value of reported z-score for the item COc1ccc([Si](C)(C)[C@@H]2[C@@H](CCO)O[C@]3(C(=O)N(Cc4ccccc4)c4ccc(NC(=O)[C@H](C)O)cc43)[C@H]2C)cc1
Response given: 0.452 (inactive)

Challenge: Please supply the value of reported z-score for the item O=C1OCCC=C[C@H]2OC34C=CCN(c5ccc6ccccc6c5)C(=O)[C@H]3N(CCCO)C(=O)[C@@H]4C12 (some centres not stated)
Response given: -0.644 (inactive)

Challenge: Please supply the value of reported z-score for the item CCC#CCN(Cc1ccccc1Br)[C@H](/C=C/C1CC1)[C@@H](O)Cc1ccccc1
Response given: 1.07 (inactive)
